Target: T1, Peptide G (rat PAR-2), N-terminal biotinylated (Rat (Rattus norvegicus), N-terminal biotin via G4S linker)
T1 construct: also called Peptide G N-Term
T1 peptide: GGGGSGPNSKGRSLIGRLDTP
Test: SPR, peptide immobilized
I'd appreciate it if you could supply T1/2 values for the items below.
Numbers only, in min.

BINDER	UNIT_STRING	T1/2
H4H583P (antibody, human IgG4, V domains shown, also called H1H583P variable regions) VH: QVQLVESGGGVVQPGMSLRLSCTASGFTFRRYGMHWVRQAPGKGLEWVAVIWYDGSNKYYADSVKGRFTITRDNSKNTLYLQMNSLRAEDTAIYFCASEITIGDWFDPRGQGTLVTVSS VL: AIQMTQSPSSLSASVGDRVTITCRASQGIRNDLGWFQQKPGKVPKLLIYAASTLHSGVPSRFSGSGFGTDFTLTISSLQPEDFATYYCLQDFNYPLTFGGGTKVEIK	min	13

Memo: H4H584P (antibody, human IgG4, V domains shown, also called H1H584P variable regions) VH: QVQLVESGGGVVQPGRSLRLSCVASGFTFSRYGMHWVRQAPGKGLEWVVVISYDGINKYYADSVKGRFTISRDNSKNTVYLQMNSLRAEDTAVYYCAKGDFWSGYFDYWGQGTLVTVSS VL: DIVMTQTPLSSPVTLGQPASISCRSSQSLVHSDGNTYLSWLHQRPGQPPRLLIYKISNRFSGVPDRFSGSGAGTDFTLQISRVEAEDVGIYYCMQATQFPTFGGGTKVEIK , reported T1/2: 15

Attribution: patent US20110059095A1
